- tgt: Human MGAT-2 (Homo sapiens (Human), UniProt Q3SYC2)
- Sequence (Q3SYC2 whole entry): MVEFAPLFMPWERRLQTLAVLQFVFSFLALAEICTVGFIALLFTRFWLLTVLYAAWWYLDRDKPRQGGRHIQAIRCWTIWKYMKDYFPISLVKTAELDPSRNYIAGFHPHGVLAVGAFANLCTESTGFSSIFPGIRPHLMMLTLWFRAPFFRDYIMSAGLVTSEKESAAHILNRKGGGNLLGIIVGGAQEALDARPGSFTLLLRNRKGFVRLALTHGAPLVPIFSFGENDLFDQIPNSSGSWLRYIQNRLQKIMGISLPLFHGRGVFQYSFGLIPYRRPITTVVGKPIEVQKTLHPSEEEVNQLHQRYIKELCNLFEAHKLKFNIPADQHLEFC
- protocol details: MGAT SPA Assay;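 further: inhibition scaled between DMSO vehicle as full MGAT2 activity and membranes of uninfected Sf9 cells as blank, IC50 fitted by logistic curve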
- Format: biochemical
- conditions: membranes from Sf9 cells expressing recombinant human MGAT2; 2-monooleoylglycerol and [3H]-oleoyl-CoA
property name: IC50 (nM)

>  <compound>
Cc1ccc(C2=C(C(=O)Nc3nn[nH]n3)C(=O)NC(c3cccc(C4=CCCCC4)c3)(C(F)(F)F)C2)cc1 (centres unmarked)

>  <reported>
655

$$$$
>  <compound>
CCCCOc1ccc(C2(C(F)(F)F)CC(c3ccc(OC)cc3)=C(NC(=O)c3ccno3)C(=O)N2)cc1 (centres unmarked)

>  <reported>
16

$$$$
>  <compound>
COc1ccc(C2=C(C#N)C(=O)NC(c3ccc(OCCCC(F)(F)F)cc3)(C(F)(F)F)C2)c(F)c1 (centres unmarked) [Example 91]

>  <reported>
916

$$$$
>  <compound>
Cc1ccc(C2=C(C#N)C(=O)NC(c3ccc(F)cc3)(C(F)(F)F)C2)cc1 (centres unmarked)

>  <reported>
2520

$$$$

(1) COc1ccc(NC(=O)C2=C(c3ccc(C)cc3)CC(C)(C(=O)NCCCCc3ccccc3)NC2=O)cc1 (centres unmarked)
(2) Cc1ccc(C2=C(C(=O)Nc3ccc(Cl)cc3)C(=O)NC(c3ccc(OCCCC(F)(F)F)cc3)(C(F)(F)F)C2)cc1 (centres unmarked)
Problem: Kindly identify the item with the lower IC50 figure among these two: 1 and 2 // caller expects the label of the chosen entry
Solution: 1
(1: 47 nM, 2: 156 nM)
